Ref: PubChem BioAssay (NCI)

This section presents compounds with their documented growth values.
- Test system: NCI-H322M lung
- assay-protocol: NCI-60 one-dose screen, 48 h (100 = growth as untreated, 0 = no growth, -100 = all killed)
- condition-summary: 10 µM unless noted
The panel holds about 83,000 compounds, 20% with a hit somewhere; the sample as a whole holds those more often. The source made the active and inactive calls. The calls were made as follows: active = growth percent below 10; inactive = the rest.

{"columns": ["compound", "growth"],
 "data": [
  ["O=C(Nc1nc2ccc(O)cc2s1)c1cccc(C(F)(F)F)c1", "84.3% (inactive)"],
  ["O=C(N/N=C/c1ccco1)c1[nH]c2ccc(Br)cc2c1-c1ccccc1", "42.1% (inactive)"],
  ["Cc1nc2cnc(N)c(C#Cc3cncc(C(=O)Nc4ccc(Cl)c(C(F)(F)F)c4)c3)c2nc1C", "64.9% (inactive)"],
  ["CC(C)(C)Nc1nc2c(OCCc3ccccc3)cccn2c1-c1ccc(Cl)cc1", "24.6% (inactive)"],
  ["COC(=O)c1ccc(NC(=S)N2CCc3ccc([N+](=O)[O-])cc3C2)cc1O", "101% (inactive)"],
  ["CN1C(=S)N(C)C2C1NN=C1SC(c3ccccc3)=CC(=O)N12 (centres undefined)", "104% (inactive)"],
  ["COc1ccc2[nH]cc(-c3cc(N)n4nc(-c5c[nH]c6ccc(OC)cc56)cc4n3)c2c1", "25.4% (inactive)"],
  ["COc1cc(OC)c(C2SCC(=O)N2Nc2ncnc3ccccc23)cc1OC (centres undefined)", "96.4% (inactive)"],
  ["C=CCSc1ccc2c(c1)C(N1CCNCC1)=Nc1ccccc1O2", "85.6% [8.25 µM] (inactive)"],
  ["CCC/C=C/C=C/C(=O)N[C@@H](Cc1cc(F)cc(F)c1)C(=O)N[C@@H]1C(=O)N2CCC[C@H]2C(=O)N2CCCC[C@H]2C(=O)N[C@@H](C)C(=O)N2C[C@H](C)C[C@H]2C(=O)O[C@H]1C", "36.5% (inactive)"],
  ["CS(=O)(=O)c1ccc(-c2nc3ccccn3c2C=Nc2ccc(Cl)cc2)cc1", "76.7% (inactive)"],
  ["O=C(N/N=C/c1ccc([N+](=O)[O-])o1)c1[nH]c2ccc(Br)cc2c1-c1ccccc1", "41.2% (inactive)"],
  ["Nc1cc(-c2c[nH]c3ccc(Cl)cc23)nc2cc(-c3c[nH]c4ccc(Cl)cc34)nn12", "56.8% (inactive)"],
  ["CS(=O)(=O)c1ccc(-c2nc3ccccn3c2/C=N/Nc2nc(-c3ccc(Br)cc3)cs2)cc1", "111% (inactive)"]
]}
